# Assay target: T1, monomeric recombinant human Notch3 extracellular domain (containing EGF like domains 1-11) fusion protein (human, UniProt Q9UM47 40-467)
# T1 construct: domain: EGF like domains 1-11; also called monomeric rhNotch3
# T1 sequence (looked up): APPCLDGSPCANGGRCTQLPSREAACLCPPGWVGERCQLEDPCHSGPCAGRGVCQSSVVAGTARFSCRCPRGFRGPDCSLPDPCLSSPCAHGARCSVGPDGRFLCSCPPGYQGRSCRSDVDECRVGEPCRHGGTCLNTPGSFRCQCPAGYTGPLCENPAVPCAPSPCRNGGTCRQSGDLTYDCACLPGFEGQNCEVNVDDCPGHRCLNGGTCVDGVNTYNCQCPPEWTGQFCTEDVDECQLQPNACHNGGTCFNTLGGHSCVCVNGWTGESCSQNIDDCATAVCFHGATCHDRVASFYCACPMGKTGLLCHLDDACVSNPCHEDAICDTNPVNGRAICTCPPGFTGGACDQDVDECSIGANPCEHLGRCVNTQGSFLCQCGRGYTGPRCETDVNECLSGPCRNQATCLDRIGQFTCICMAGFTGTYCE
# Test name: SPR BIAcore T100, monomeric rhNotch3 analyte, 37 C, average of Table 16 and additional measurements
# Description: Goat anti-human IgGs (Fc fragment specific, Jackson ImmunoResearch, West Grove, Pa.) were immobilized on carboxymethylated dextran CM4 sensor chips by amine coupling, according to a standard protocol. Analyses were performed at 25 and 37° C. using PBS containing 0.05% surfactant P20 as running buffer. The antibodies were captured in individual flow cells at a flow rate of 10 μL/minute. […] The dissociation phase was monitored for up to 900 seconds. […]
Outcome measure: koff (s⁻¹)
Response body: numeric value in s⁻¹, unit text excluded.

Binder	U	Readout number
Hu4F11-71 (antibody, human IgG1, kappa, V domains shown, Humanized, human IgG1 kappa; Hv3-23 A28T T62S heavy + Kv2D-29 N28H kappa) VH: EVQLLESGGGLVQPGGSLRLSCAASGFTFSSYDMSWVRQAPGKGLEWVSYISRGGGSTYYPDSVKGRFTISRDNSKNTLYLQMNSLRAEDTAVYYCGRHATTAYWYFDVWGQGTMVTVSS VL: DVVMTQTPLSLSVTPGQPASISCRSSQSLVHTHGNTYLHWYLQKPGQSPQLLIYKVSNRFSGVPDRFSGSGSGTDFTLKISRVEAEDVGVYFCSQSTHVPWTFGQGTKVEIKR	s⁻¹	0.0095
Hu4F11-77 (antibody, human IgG1, kappa, V domains shown, Humanized, human IgG1 kappa; Hv3-23 A28T S31N T62S heavy + Kv2D-29 N28Q kappa) VH: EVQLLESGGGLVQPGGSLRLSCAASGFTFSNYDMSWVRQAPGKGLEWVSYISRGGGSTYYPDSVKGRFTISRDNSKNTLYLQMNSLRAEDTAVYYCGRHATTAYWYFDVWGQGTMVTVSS VL: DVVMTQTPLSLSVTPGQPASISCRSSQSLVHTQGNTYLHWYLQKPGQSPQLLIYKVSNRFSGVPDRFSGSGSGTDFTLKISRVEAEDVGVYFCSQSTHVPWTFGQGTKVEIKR	s⁻¹	0.0074
Hu4F11-75 (antibody, human IgG1, kappa, V domains shown, Humanized, human IgG1 kappa; Hv3-23 A28T T62S heavy + Kv2D-29 N28Y kappa) VH: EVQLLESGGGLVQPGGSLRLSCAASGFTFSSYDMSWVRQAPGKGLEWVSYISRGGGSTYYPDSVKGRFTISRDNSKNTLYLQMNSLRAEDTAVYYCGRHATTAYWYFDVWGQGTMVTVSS VL: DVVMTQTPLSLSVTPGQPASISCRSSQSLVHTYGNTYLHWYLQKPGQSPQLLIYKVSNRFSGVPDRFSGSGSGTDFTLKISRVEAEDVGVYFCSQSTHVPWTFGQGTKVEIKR	s⁻¹	0.013
Hu4F11-70 (antibody, human IgG1, kappa, V domains shown, Humanized, human IgG1 kappa; Hv3-23 A28T S31H T62S heavy + Kv2D-29 N28H kappa) VH: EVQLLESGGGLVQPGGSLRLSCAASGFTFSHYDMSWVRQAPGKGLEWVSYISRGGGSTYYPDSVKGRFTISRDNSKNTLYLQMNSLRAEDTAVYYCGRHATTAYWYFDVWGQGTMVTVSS VL: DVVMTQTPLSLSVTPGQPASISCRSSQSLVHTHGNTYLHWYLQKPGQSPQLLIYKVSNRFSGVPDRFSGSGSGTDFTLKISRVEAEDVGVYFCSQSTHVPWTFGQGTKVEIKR	s⁻¹	0.0039

Moving on to the next binder.
Entry Hu4F11-69 (antibody, human IgG1, kappa, V domains shown, Humanized, human IgG1 kappa; Hv3-23 A28T S31N T62S heavy + Kv2D-29 N28H kappa) VH: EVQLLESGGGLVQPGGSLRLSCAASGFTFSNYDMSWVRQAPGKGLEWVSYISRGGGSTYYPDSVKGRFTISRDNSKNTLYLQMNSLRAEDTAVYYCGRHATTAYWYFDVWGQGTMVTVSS VL: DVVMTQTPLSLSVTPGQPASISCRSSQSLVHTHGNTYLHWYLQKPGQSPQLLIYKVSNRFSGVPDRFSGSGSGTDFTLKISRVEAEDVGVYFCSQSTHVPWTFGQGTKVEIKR : reported koff = ?
0.0037
